result.type: melting point

Observe how each entry below is paired with its result.
1. N#Cc1cc(C2=Nc3ccc(-c4ccc(F)cc4F)cc3NC(=O)C2)ccn1 = 250 to 253 °C
2. CCCOc1ccccc1-c1nc2nc(NCC(=O)OCC)ncc2c(=O)[nH]1 = 174 to 176 °C

Take each entry in turn and give its melting point.
1. CN=C(NC#N)NCC(O)COc1cccc(CN2CCCCC2)c1 (stereo unspecified)
2. O=CC=Cc1ccc(O)c(O)c1
3. COc1ccc(Cl)c(N)c1C(=O)CCl
4. CCCCCCC(C(=O)O)n1c(C(F)(F)F)nc2cc(-c3ccccc3-c3nn[nH]n3)ccc21 (stereo unspecified)
5. CCC(C)(CC)NC(=NC#N)Nc1cccnc1

45 to 47 °C
200 to 202 °C
112 °C
128 to 130 °C
184 to 186 °C
